# TARGET_SYSTEM: human 5-HT2C receptor (Homo sapiens, UniProt P28335)
# Construct: expressed in transfected cells
# Sequence (P28335 33-458): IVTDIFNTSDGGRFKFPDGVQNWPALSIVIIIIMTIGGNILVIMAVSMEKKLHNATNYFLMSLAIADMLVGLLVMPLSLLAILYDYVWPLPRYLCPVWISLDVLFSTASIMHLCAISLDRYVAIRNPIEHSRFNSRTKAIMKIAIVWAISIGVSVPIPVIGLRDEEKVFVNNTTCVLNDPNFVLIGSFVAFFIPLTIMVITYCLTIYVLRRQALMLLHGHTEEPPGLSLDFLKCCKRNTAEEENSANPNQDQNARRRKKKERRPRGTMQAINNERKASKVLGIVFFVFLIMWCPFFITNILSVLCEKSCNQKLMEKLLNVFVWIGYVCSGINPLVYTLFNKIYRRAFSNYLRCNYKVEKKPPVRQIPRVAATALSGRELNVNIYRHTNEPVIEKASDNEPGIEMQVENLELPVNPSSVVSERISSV
# MEASUREMENT_DESCRIPTION: Evaluation of 5-HT2C receptor agonist activity (intracellular calcium increase, FLIPR, CHO cells stably expressing the receptor)
# Type: cell-based
# MEASUREMENT_PARAMETERS: CHO cells stably expressing INI type human 5-HT2C receptor; intracellular Ca increase; logistic regression; read-out: 5-HT2C agonist activity EC50
MEASURED_ATTRIBUTE: pEC50
By convention, pEC50 is the negative base-10 log of a molar concentration.

Past entries and their recorded results:
| MOLECULE | TARGET_SYSTEM | NUMERIC_READOUT |
| --- | --- | --- |
| COc1cccc(CN2CCOc3cc4c(c(C5CC5)c32)CCNCC4)c1 | human 5-HT2C receptor (Homo sapiens, UniProt P28335) | 9.00 |
| N#Cc1cc(F)c(OCCN2CCOc3cc4c(c(C5CC5)c32)CCNCC4)c(F)c1 | human 5-HT2C receptor (Homo sapiens, UniProt P28335) | 9.15 |
| COCCN1CCOc2cc3c(c(-c4cccc(C)c4)c21)CCNCC3.O=C(O)/C=C/C(=O)O | human 5-HT2C receptor (Homo sapiens, UniProt P28335) | 7.44 |

Q: What value of pEC50 has been recorded for this entry: COCC1(CN2CCOc3cc4c(c(C5CC5)c32)CCNCC4)CC1
A: 8.10

Q: What would you report for COCCCN1CCOc2cc3c(cc21)CCNCC3.O=C(O)/C=C/C(=O)O ?
A: 8.15

Q: What would you report for COCCN1CCOc2cc3c(c(Br)c21)CCNCC3 ?
A: 8.54

Q: What would you report for COCCN1CCOc2cc3c(c(C)c21)CCNCC3.O=C(O)/C=C/C(=O)O ?
A: 8.08

Q: What would you report for COCCN1CCCc2cc3c(c(C4CC4)c21)CCNCC3 ?
A: 9.08

Q: What would you report for O=C(O)/C=C/C(=O)O.c1c2c(c(C3CC3)c3c1OCCN3CC1CCCOC1)CCNCC2 (stereo not shown) ?
A: 8.55

Q: What would you report for c1c2c(cc3c1OCCN3CC1CC1)CCNCC2 ?
A: 8.49

Q: What would you report for CO[C@H](C)CN1CCOc2cc3c(c(C4CC4)c21)CCNCC3.O=C(O)/C=C/C(=O)O ?
A: 9.28

Q: What would you report for CCOC(=O)N1CCCc2cc3c(c(C)c21)CCNCC3.O=C(O)C(=O)O ?
A: 8.23

Q: What would you report for O=C(O)/C=C/C(=O)O.c1ccc2c(c1)OCC(CN1CCOc3cc4c(c(C5CC5)c31)CCNCC4)O2 (stereo not shown) ?
A: 9.29

Q: What would you report for O=C(O)/C=C/C(=O)O.c1cc2c(cc1CN1CCOc3cc4c(c(C5CC5)c31)CCNCC4)OCCO2 ?
A: 8.92

Q: What would you report for COCCN1CCOc2cc3c(c(C4CC4)c21)CCNCC3 ?
A: 8.96
